Origin of measurements: patent US6750228B1

# TARGET OR TEST SYSTEM: MMP-13 (Homo sapiens, UniProt P45452)
# Construct: made in house; host or cells: baculovirus / insect cells
# METHOD: biochemical
# EXPERIMENTAL CONDITIONS: recombinant human MMP-13, MCA peptide substrate 4 μM, pH 7.5, room temperature; read-out: MMP-13 IC50
# Experimental: The compounds prepared in the manner described in the Examples above were assayed for activity by an in vitro assay. […] Briefly, 4-aminophenylmercuric acetate (APMA) or trypsin-activated MMPs were incubated with various concentrations of the inhibitor compound at room temperature for 5 minutes. […] Inhibition was measured as a reduction in fluorescent intensity as a function of inhibitor concentration, using a Perkin Elmer L550 plate reader. The IC50 values were calculated from those values. […]
EXPERIMENTAL ENDPOINT: IC50 (nM)

MOLECULE: O=C(NO)C1(S(=O)(=O)c2ccc(N3CCC(OCc4cccc(C(F)(F)F)c4)CC3)cc2)CCOCC1
IC50 (nM): 8.8
//
MOLECULE: O=C(c1ccc(OC(F)(F)F)cc1)C1CCN(c2ccc(S(=O)(=O)C3(C(=O)NO)CCOCC3)cc2)CC1
IC50 (nM): 15.8
//
MOLECULE: CC1CC(C)CN(C(=O)C2CCN(c3ccc(S(=O)(=O)C4(C(=O)NO)CCN(C(=O)CN5CCNCC5)CC4)cc3)CC2)C1 (stereo not drawn)
IC50 (nM): 50
//
MOLECULE: CN1CCCN(c2ccc(S(=O)(=O)C3(C(=O)NO)CCOCC3)cc2)CC1
IC50 (nM): 1400
//
MOLECULE: O=C(NO)C1(S(=O)(=O)c2ccc(OC3CCC(OCc4cccc(Cl)c4)C3)cc2)CCOCC1 (stereo not drawn) [Example 669]
IC50 (nM): 4.3

[P] O=C(NO)C1(S(=O)(=O)c2ccc(N3CCC(Oc4ccc(C(F)(F)F)cc4)CC3)cc2)CCOCC1
[Q] CO[C@@H]1CCN(c2ccc(S(=O)(=O)C3(C(=O)NO)CCOCC3)cc2)C1
[R] O=C(NO)C1(S(=O)(=O)c2ccc(N3CCC(Oc4ccc(Cl)cc4)CC3)cc2)CCOCC1
[S] C=CCOC1CCN(c2ccc(S(=O)(=O)C3(C(=O)NO)CCOCC3)cc2)CC1
Order the records by IC50, with each subsequent value no larger than the one before. // rank by listing labels in the order requested Q, S, P, R

###

# TARGET OR TEST SYSTEM: MMP-2 (Homo sapiens)
# Construct: made in house; provided by Dr. Gregory Goldberg, Washington University
# Sequence (P08253 110-660): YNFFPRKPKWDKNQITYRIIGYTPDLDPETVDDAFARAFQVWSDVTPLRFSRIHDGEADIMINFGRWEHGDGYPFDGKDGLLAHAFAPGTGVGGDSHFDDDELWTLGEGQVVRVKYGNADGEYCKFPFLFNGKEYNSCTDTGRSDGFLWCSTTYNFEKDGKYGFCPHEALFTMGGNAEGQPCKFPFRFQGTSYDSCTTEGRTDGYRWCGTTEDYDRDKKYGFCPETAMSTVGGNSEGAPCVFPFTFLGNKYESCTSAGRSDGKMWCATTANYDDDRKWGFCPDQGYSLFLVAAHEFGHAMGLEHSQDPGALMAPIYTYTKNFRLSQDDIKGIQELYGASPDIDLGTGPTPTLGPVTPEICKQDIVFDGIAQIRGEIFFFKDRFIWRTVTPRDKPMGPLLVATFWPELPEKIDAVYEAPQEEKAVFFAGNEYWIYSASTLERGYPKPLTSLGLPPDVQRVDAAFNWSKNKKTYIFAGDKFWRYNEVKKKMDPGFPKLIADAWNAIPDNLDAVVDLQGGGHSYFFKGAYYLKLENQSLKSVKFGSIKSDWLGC
# METHOD: biochemical
# EXPERIMENTAL CONDITIONS: recombinant human MMP-2, MCA peptide substrate 4 μM, pH 7.5, room temperature; read-out: MMP-2 IC50
EXPERIMENTAL ENDPOINT: IC50 (nM)

Past entries and their recorded results:
COMPOUND: CN(C)S(=O)(=O)N1CC(Oc2ccc(S(=O)(=O)C3(C(=O)NO)CCOCC3)cc2)C1 [Example 853]
UNIT NAME: nM
NUMBER: 120
--
COMPOUND: O=C(NO)C1(S(=O)(=O)c2ccc(N3CCC(OCc4ccc(F)cc4)CC3)cc2)CCN(C2CC2)CC1 [Example 397]
UNIT NAME: nM
NUMBER: 70

[1] CCC(CC)COCc1ccc(COC2CCN(c3ccc(S(=O)(=O)C4(C(=O)NO)CCOCC4)cc3)CC2)cc1 [Example 602]
[2] CCCCCOc1ccc(COC2CCN(c3ccc(S(=O)(=O)C4(C(=O)NO)CCOCC4)cc3)CC2)cc1 [Example 477]
Which entry has a larger number for IC50, 1 or 2 ? Give the label of your selection. 1

[P] COc1cccc(S(=O)(=O)N2CCN(c3ccc(S(=O)(=O)C4(C(=O)NO)CCOCC4)cc3)CC2)c1 [Example 696]
[Q] CCCNC(=O)C1CCN(c2ccc(S(=O)(=O)C3(C(=O)NO)CCOCC3)cc2)CC1 [Example 57]
Pick one, P or Q : lowest reported IC50. Give the label of your selection. P
(P: 140 nM, Q: 2700 nM)
